IC50 listing for selected compounds.
- Study target: Axl (Homo sapiens, UniProt P30530)
- Construct: endogenous in cells; host or cells: HeLa
- Sequence (P30530 26-894): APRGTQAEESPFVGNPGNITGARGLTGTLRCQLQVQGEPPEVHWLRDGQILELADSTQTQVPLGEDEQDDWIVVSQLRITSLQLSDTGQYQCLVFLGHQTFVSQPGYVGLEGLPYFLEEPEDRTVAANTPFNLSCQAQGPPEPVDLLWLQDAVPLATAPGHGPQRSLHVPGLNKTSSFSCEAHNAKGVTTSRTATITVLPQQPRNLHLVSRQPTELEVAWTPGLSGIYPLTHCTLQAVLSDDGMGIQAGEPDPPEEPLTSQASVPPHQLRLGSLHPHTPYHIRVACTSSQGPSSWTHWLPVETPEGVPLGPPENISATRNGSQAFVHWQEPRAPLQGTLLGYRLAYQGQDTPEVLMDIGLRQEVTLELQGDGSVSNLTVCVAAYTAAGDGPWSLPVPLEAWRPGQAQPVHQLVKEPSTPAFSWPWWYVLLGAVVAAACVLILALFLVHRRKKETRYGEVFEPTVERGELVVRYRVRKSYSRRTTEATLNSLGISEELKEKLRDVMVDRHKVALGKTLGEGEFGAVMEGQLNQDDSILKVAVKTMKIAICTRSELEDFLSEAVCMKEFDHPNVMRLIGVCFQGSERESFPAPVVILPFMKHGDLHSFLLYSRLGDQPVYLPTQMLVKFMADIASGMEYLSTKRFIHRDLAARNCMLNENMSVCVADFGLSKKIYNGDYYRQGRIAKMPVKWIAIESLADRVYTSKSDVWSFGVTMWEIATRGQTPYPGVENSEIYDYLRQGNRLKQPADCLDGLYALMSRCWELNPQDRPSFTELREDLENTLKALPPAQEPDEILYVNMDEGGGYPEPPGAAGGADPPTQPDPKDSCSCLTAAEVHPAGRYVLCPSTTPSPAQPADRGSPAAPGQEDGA
- Assay details: Phospho-AKT in-cell Western assay (inhibition of Axl activity)
- Format: cell-based
- Test conditions: Table 4, formula (Id); Hela cells, Axl antibody cross-linking stimulation, phospho-Akt chemiluminescence normalized to relative cell number

INSERT INTO assay_data (compound, measurement_name, readout_value) VALUES
  ('CNC(=O)[C@H]1C[C@H]2C[C@H](C2(C)C)[C@@]1(C)Nc1nc(Nc2ccc3c(c2)CCN3CCN(C)C)ncc1Cl [Compound 27]', 'IC50', '< 1000 nM');

What the record says about CNC(=O)[C@H]1C[C@H]2C[C@H](C2(C)C)[C@@]1(C)Nc1nc(Nc2ccc3[nH]ccc3c2)ncc1Cl [Compound 26] : IC50 is 1000 to 10000 nM
